target: Carbonic anhydrase 13 (Mus musculus, UniProt Q9D6N1)
Sequence (Q9D6N1 whole entry): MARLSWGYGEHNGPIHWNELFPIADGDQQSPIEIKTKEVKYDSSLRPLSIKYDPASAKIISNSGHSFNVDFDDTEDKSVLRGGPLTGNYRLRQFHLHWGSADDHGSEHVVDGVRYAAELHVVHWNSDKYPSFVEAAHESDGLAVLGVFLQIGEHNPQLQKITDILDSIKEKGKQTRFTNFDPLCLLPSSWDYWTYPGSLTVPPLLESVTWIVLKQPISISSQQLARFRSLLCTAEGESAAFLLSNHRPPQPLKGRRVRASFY
measurement.kind: Ki (nM)
Write the answer as a number in nM, unit excluded.

Lookup: Which Ki value is on record for NS(=O)(=O)c1cc(C2(O)NC(=O)c3ccccc32)ccc1Cl (stereo unspecified) ?
Found: 15

###

target: Carbonic anhydrase 5A, mitochondrial (Homo sapiens)
Sequence (P35218 whole entry): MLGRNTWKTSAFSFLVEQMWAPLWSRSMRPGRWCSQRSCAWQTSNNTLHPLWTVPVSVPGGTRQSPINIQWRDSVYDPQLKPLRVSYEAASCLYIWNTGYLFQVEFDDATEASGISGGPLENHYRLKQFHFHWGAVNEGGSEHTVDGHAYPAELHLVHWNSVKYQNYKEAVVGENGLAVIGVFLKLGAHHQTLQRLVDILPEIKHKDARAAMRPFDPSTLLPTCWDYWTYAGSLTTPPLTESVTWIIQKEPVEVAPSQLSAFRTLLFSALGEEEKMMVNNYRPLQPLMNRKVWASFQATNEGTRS
measurement.kind: Ki

Lookup: Recall the recorded Ki for NS(=O)(=O)c1cc(C2(O)NC(=O)c3ccccc32)ccc1Cl (stereo unspecified) [CHLORTHALIDONE] with Carbonic anhydrase 5A, mitochondrial (Homo sapiens) and state it.
Found: 917 nM
